# Tested on: M14 melanoma
# Experiment Description: NCI-60 one-dose screen, 48 h
# Particulars: 10 µM unless noted
About 83,000 compounds went through this panel and 20% of them were active in at least one assay; those are over-represented in the sample as a whole. Activity calls are given as the source filed them. How the source made its calls: active means growth percent below 10; inactive means the rest.
Labels: active, inactive

INSERT INTO results (compound, experimental_system, label_class) VALUES
  ('CCCCCCCCCCCCCC1=NC(C)(C)CN1C(C)C', 'M14 melanoma', 'active'),
  ('COc1ccc(C(=O)OC2C(OC3C(O)COC(O[C@H]4C[C@H]5[C@@H]6CC=C7C[C@@H](O)CC[C@]7(C)[C@H]6CC[C@]5(C)[C@H]4[C@H](C)C(=O)CCC(C)C)C3OC(N)=O)OCC(O)C2O)cc1 (some centres not stated)', 'M14 melanoma', 'active'),
  ('CCCCCCCC/C=C/CCCCCCCC1=NC(C)(C)CN1C(C)C', 'M14 melanoma', 'active'),
  ('CCN(CC)CCNC(=O)C(F)(F)C(F)(F)C(F)(F)F', 'M14 melanoma', 'inactive'),
  ('O=C(Nc1ccc(Cl)cc1)c1cc(-c2ccc(Cl)cc2)c2sc(=O)[nH]c2n1', 'M14 melanoma', 'active'),
  ('CCOC(=O)C1OC2(CCCC2)OC1C(=O)OCC (configuration not stated)', 'M14 melanoma', 'inactive'),
  ('Cc1cc(Nc2c3ccccc3nc3ccccc23)ccc1NS(C)(=O)=O', 'M14 melanoma', 'inactive'),
  ('N#Cc1ccc(-c2ccc(-c3cccs3)o2)cc1F', 'M14 melanoma', 'inactive'),
  ('COc1cc(/C=C/c2cc(/C=C/c3ccc(O)c(OC)c3)n(C(=O)Nc3ccc(F)c(Cl)c3)n2)ccc1O', 'M14 melanoma', 'active'),
  ('CCN(CCC#N)c1ccccc1', 'M14 melanoma', 'inactive'),
  ('Cc1c2c(cc3c1[nH]c1ccccc13)C=NCC2', 'M14 melanoma', 'inactive'),
  ('O=C1C=CN2C(=O)CC=CC2[C@@H]1O (some centres not stated)', 'M14 melanoma', 'inactive'),
  ('CC[C@]1(O)C[C@H]2CN(CCc3c([nH]c4ccccc34)C(C(=O)OC)(c3cc4c(cc3OC)N(C)[C@H]3[C@@](O)(C(=O)OC)[C@H](OC(C)=O)[C@]5(CC)[C@@H]6C[C@@H]6CN6CC[C@]43[C@@H]65)C2)C1 (some centres not stated)', 'M14 melanoma', 'active'),
  ('COc1cc(C)c(Cl)cc1C1=NN(c2ccc(S(N)(=O)=O)cc2)C(/C=C/c2ccccc2)C1 (configuration not stated)', 'M14 melanoma', 'inactive'),
  ('Cc1cc(-c2ccc(N=Nc3c(S(=O)(=O)O)cc4cc(S(=O)(=O)O)cc(O)c4c3O)c(C)c2)ccc1N=Nc1c(S(=O)(=O)O)cc2cc(S(=O)(=O)O)cc(O)c2c1O', 'M14 melanoma', 'inactive'),
  ('Cc1ccccc1Nc1n[nH]c(Cc2ccccc2)n1', 'M14 melanoma', 'inactive'),
  ('CC(=O)c1ccc(Br)c([N+](=O)[O-])c1', 'M14 melanoma', 'inactive'),
  ('CCOC(=O)C1=C(C)NC(=S)NC1c1ccccc1 (configuration not stated)', 'M14 melanoma', 'inactive'),
  ('C=C(C)[C@@H]1CC[C@]2(C(=O)NC(COC(=O)C(Cl)Cl)(COC(=O)C(Cl)Cl)COC(=O)C(Cl)Cl)CC[C@]3(C)[C@H](CC[C@@H]4[C@@]5(C)CC[C@H](OC(C)=O)C(C)(C)[C@@H]5CC[C@]43C)[C@@H]12', 'M14 melanoma', 'inactive'),
  ('COc1ccc(C2=NNC(c3ccc(Oc4nc5c(c(=O)n(C)c(=O)n5C)n4C)c(OC)c3)C2)cc1 (configuration not stated)', 'M14 melanoma', 'inactive'),
  ('COc1cccc(N2CCN(c3ncnc4cc[nH]c34)CC2)c1', 'M14 melanoma', 'inactive'),
  ('O=C(Nc1ccncc1)C(=O)c1cn(S(=O)(=O)c2cccc(Cl)c2F)c2ccccc12', 'M14 melanoma', 'inactive'),
  ('CCCCCCCCCCCCNC(=O)N[C@H](C(=O)N[C@H]1/C=C/CCNC(=O)/C=C/[C@H](C)NC1=O)C(C)C', 'M14 melanoma', 'active'),
  ('CC1OC(n2c3ccccc3c3c4c(c5c6ccccc6[nH]c5c32)C(=O)N(CCN2CCOCC2)C4=O)CC(O)C1O (configuration not stated)', 'M14 melanoma', 'active'),
  ('CC(=O)Nc1c(Br)cc2c(c1Br)Cc1cc(Br)ccc1-2', 'M14 melanoma', 'inactive'),
  ('CC1=C(/C=C/C(C)=C/C=C(C(=O)O)\C(C)=C\C(=O)O)C(C)(C)CCC1', 'M14 melanoma', 'inactive'),
  ('COc1ccc(/C(C)=N/NC(=O)CSc2nc3ccccc3c(=O)n2CCc2ccc(S(N)(=O)=O)cc2)cc1', 'M14 melanoma', 'inactive'),
  ('CCOC(=O)Nc1ccc2nc(Sc3ccc(Cl)cc3)sc2c1', 'M14 melanoma', 'inactive'),
  ('C=C1C(=O)O[C@H]2[C@H]1CC/C(COC(=O)NCc1cn(C)c3ccccc13)=C\CC[C@@]1(C)O[C@@H]21', 'M14 melanoma', 'active'),
  ('CCSCC1CC(O)(c2ccccc2)C(c2ccccc2)C(c2ccc(F)cc2)O1 (configuration not stated)', 'M14 melanoma', 'active'),
  ('Cc1cc(O)ccc1Sc1ccccc1[N+](=O)[O-]', 'M14 melanoma', 'inactive'),
  ('Cc1ccc2c(C)c3c(ccc4ccccc43)c[n+]2c1', 'M14 melanoma', 'inactive'),
  ('O/N=C/c1ccncc1', 'M14 melanoma', 'inactive'),
  ('O=c1oc2ccccc2cc1-c1cc(-c2ccc(-c3cc(-c4cc5ccccc5oc4=O)nc(-c4cc5ccccc5oc4=O)c3)cc2)cc(-c2cc3ccccc3oc2=O)n1', 'M14 melanoma', 'inactive'),
  ('C[C@@H]1CC2C3CCC4=CC(=O)C=C[C@]4(C)[C@@]3(Cl)[C@@H](O)C[C@]2(C)[C@@]1(OC(=O)c1ccco1)C(=O)CCl (some centres not stated)', 'M14 melanoma', 'inactive'),
  ('N/N=C(\C(=N\N)c1ccccc1)c1ccccc1', 'M14 melanoma', 'inactive'),
  ('COc1ccc2c(c1)N(Cc1ccc(Cl)cc1)CCC2N1CCCC1=O (configuration not stated)', 'M14 melanoma', 'inactive');
